Hey, just so you know, these numbers are from patent US20230365684A1.

target: T1, human CD33 IgC2 domain, recombinant (human, UniProt P20138 136-259); test: SPR (Biacore 8K), vHH-mono-Fc captured by anti-human Fc, antigen in solution
T1 construct: domain: IgC2; also called hu CD33 (IgC2); hCD33-IgC2
T1 sequence (P20138 136-259 limits assumed): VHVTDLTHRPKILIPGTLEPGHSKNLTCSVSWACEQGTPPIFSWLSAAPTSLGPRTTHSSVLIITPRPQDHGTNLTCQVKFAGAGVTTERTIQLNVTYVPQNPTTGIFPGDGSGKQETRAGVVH
MEASUREMENT_NAME: Kd (nM)
The answer is to be given in nM; state only the numeric part.

Past entries and their recorded results:
[[record]]
binder = "C33B1789 (llama vHH on mono-Fc backbone) (Fc fusion, not shown: mono-Fc backbone) QVQLVESGGGLVQAGGSLRLSCAVFGFSLSDYAIGWFRQAPGKEREKVSCISESDGRTYLSDSVKSRFTISRDNGKNTVYLQMNNLKPDDTGVYYCATVDQAISESSYHCEKGFGSWGQGTQVTVSS"
numeric_readout = 3.03

[[record]]
binder = "C33B1785 (llama vHH on mono-Fc backbone) (Fc fusion, not shown: mono-Fc backbone) QVQLVESGGGSVQPGGSLRLSCAVFGFSLSDYAIGWFRQAPGKEREKVSCISESDGRTYLSDSVKSRFTISRDNGKNTVYLQMNNLKPDDTGVYYCATVDQAISESSYHCEKGFGSWGQGTQVTVSS"
numeric_readout = 3.31

[[record]]
binder = "C33B1780 (llama vHH on mono-Fc backbone) (Fc fusion, not shown: mono-Fc backbone) EVQLVESGGGLVQPGGSLRLSCAVFGFSLSDYAIGWFRQAPGKEREKVSCISESDGRTYLSDSVKSRFTISRDNGKNTVYLQMNNLKPDDTGVYYCATVDQAISESSYHCEKGFGSWGQGTQVTVSS"
numeric_readout = 3.38

[[record]]
binder = "C33B1781 (llama vHH on mono-Fc backbone) (Fc fusion, not shown: mono-Fc backbone) EVQVVESGGGLVQGGGSLRLSCAASGSIFSINAMGWYHQAPGKQRELVARITGGGATDYVDSVKGRFTISLDSAKSTVYLQMNSLKPEDTAVYHCYADLVTRVGSDLLYDDYWGQGTQVTVSS"
numeric_readout = 0.0559


// next entry
The binder C33B1788 (llama vHH on mono-Fc backbone) (Fc fusion, not shown: mono-Fc backbone) QVQLVESGGGLVQPGGSLRLSCAVFGFSLSDYAIGWFRQAPGKEREKVSCISESDGRTYLSDSVKSRFTISRDNGKNTVYLQMNNLKPDDTGVYYCATVDQAISESSYHCEKGFGSWGQGTQVTVSS showed Kd equal to 4.34
